- system_tested: CNGA3 P99L, A105P (PA-LP) channels (Homo sapiens, UniProt Q16281, A105P/P99L)
- procedure_summary: Inside-out patch clamp, CNGA3 P99L, A105P
- Assay type: biochemical
- condition_summary: read-out: K1/2 cGMP; +80 mV, no PIPn
readout_name: EC50 (µM)
The response must be a number in µM with no trailing unit.

Reported EC50 for Nc1nc2c(ncn2[C@@H]2O[C@@H]3COP(=O)(O)O[C@H]3[C@H]2O)c(=O)[nH]1 [cGMP, cyclic guanosine monophosphate] was 5.3

---

- system_tested: CNGA3 RR-QQ (R643Q, R646Q) channels (Homo sapiens, UniProt Q16281, R643Q/R646Q)
- procedure_summary: Inside-out patch clamp, CNGA3 RR-QQ
- condition_summary: read-out: K1/2 cGMP; +80 mV, no PIPn
readout_name: EC50
Output should be the measured figure followed by the unit it is expressed in.

Reported EC50 for Nc1nc2c(ncn2[C@@H]2O[C@@H]3COP(=O)(O)O[C@H]3[C@H]2O)c(=O)[nH]1 [cGMP, cyclic guanosine monophosphate] was 7.45 µM

---

- system_tested: CNGA3 ΔN (2-156) channels (Homo sapiens)
- procedure_summary: Inside-out patch clamp, CNGA3 ΔN
- condition_summary: read-out: K1/2 cGMP; +80 mV, no PIPn
readout_name: EC50 (µM)
The response must be a number in µM with no trailing unit.

Reported EC50 for Nc1nc2c(ncn2[C@@H]2O[C@@H]3COP(=O)(O)O[C@H]3[C@H]2O)c(=O)[nH]1 [cGMP, cyclic guanosine monophosphate] was 9.16

---

- system_tested: CNGA3 P99L, A105P (PA-LP) channels (Homo sapiens, UniProt Q16281, A105P/P99L)
- Sequence (Q16281 1-694 P99L/A105P): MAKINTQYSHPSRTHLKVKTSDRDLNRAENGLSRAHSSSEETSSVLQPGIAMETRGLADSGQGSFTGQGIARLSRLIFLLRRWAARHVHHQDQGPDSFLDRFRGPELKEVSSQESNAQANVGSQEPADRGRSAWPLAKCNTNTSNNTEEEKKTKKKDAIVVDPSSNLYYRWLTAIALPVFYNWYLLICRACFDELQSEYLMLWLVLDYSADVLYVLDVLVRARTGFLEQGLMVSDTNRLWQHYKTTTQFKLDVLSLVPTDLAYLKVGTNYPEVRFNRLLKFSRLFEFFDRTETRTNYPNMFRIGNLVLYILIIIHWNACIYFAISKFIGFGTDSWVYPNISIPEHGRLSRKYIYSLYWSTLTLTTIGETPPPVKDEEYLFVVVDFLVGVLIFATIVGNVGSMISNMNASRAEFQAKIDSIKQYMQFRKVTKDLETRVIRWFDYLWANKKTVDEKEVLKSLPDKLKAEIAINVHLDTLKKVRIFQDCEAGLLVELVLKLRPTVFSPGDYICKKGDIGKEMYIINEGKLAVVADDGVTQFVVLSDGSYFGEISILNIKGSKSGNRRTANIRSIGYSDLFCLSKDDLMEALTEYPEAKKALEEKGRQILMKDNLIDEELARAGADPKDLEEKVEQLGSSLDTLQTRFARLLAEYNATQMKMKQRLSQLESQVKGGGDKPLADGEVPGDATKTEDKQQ
- procedure_summary: Inside-out patch clamp, CNGA3 P99L, A105P
- Format: biochemical
- condition_summary: read-out: K1/2 cGMP; representative patch, before PIP3
readout_name: EC50 (µM)
The response must be a number in µM with no trailing unit.

Observed EC50, CNGA3 P99L, A105P (PA-LP) channels (Homo sapiens, UniProt Q16281, A105P/P99L), Nc1nc2c(ncn2[C@@H]2O[C@@H]3COP(=O)(O)O[C@H]3[C@H]2O)c(=O)[nH]1 [cGMP, cyclic guanosine monophosphate] : 5.7
